protocol-details: Pharmacokinetics (PK) study in SD rat (IV, IP, PO; LC-MS/MS)
Type: in vivo
experimental-context: Sprague-Dawley, serum, IP, 2 mg/kg
Provide the recorded bioavailability for the entries that follow.
Answers are plain numbers, in %.

COc1cc(N2CCC(N3CCN(C(=O)CCOCCOCCNc4cccc5c4C(=O)N(C4CCC(=O)NC4=O)C5=O)CC3)CC2)ccc1Nc1ncc(Cl)c(Nc2ccccc2P(C)(C)=O)n1 (stereo not shown) :: 93
COc1cc(N2CCC(N3CCN(C(=O)CCCCCCNc4cccc5c4C(=O)N(C4CCC(=O)NC4=O)C5=O)CC3)CC2)ccc1Nc1ncc(Cl)c(Nc2ccccc2P(C)(C)=O)n1 (stereo not shown) :: 122

Dear colleague, could you please provide bioavailability for the compounds listed below?
1. COc1cc(N2CCC(NC(=O)CCCNc3cccc4c3C(=O)N(C3CCC(=O)NC3=O)C4=O)CC2)ccc1Nc1ncc(Cl)c(Nc2ccccc2P(C)(C)=O)n1 (stereo not shown)
2. COc1cc(N2CCC(N3CCN(C(=O)CNc4cccc5c4C(=O)N(C4CCC(=O)NC4=O)C5=O)CC3)CC2)ccc1Nc1ncc(Cl)c(Nc2ccccc2P(C)(C)=O)n1 (stereo not shown)

1: 225; 2: 157

----------
assayed-target: ALK protein in SR (NPM-ALK) cells (Homo sapiens, UniProt Q9UM73)
Construct: NPM (nucleophosmin, NPM1, P06748) fusion partner; host or cells: SR (ALCL) cells; the other entry of the earlier key: NPM1 (P06748, Nucleophosmin)
Sequence (Q9UM73 with tags, fused parts or gaps): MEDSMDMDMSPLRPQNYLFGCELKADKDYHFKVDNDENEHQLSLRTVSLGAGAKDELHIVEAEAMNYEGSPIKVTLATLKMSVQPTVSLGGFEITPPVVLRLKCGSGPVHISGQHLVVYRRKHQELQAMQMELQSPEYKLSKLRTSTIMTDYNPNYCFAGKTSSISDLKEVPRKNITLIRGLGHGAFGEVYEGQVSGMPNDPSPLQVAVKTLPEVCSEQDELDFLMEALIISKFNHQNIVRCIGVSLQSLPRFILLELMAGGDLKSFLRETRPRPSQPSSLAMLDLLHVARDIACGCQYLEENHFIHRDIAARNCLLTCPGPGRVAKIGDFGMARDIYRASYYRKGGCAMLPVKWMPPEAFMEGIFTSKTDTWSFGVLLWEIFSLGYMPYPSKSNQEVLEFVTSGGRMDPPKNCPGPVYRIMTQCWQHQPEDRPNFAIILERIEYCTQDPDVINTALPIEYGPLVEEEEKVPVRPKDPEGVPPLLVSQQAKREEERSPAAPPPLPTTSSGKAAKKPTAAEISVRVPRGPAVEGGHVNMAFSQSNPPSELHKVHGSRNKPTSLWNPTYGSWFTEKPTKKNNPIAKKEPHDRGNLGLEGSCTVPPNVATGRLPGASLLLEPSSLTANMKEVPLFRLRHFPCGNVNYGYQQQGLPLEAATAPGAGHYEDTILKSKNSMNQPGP
protocol-details: Western blot of ALK protein level (degradation, DC50), ALK phosphorylation and downstream signaling in SR cells
Assay type: cell-based
experimental-context: ALK protein degradation in SR cells
Provide the recorded DC50 for the entries that follow.

COc1cc(N2CCN(C(=O)CCCCCCCCC(=O)N[C@H](C(=O)N3C[C@H](O)C[C@H]3C(=O)NCc3ccc(-c4scnc4C)cc3)C(C)(C)C)CC2)ccc1Nc1ncc(Cl)c(Nc2ccccc2P(C)(C)=O)n1 :: 1 to 10 nM
COc1cc(N2CCC(NC(=O)CCCCCCCCC(=O)N[C@H](C(=O)N3C[C@H](O)C[C@H]3C(=O)NCc3ccc(-c4scnc4C)cc3)C(C)(C)C)CC2)ccc1Nc1ncc(Cl)c(Nc2ccccc2P(C)(C)=O)n1 :: 1 to 10 nM
COc1cc(N2CCC(N3CCN(C(=O)CCOCCOCCC(=O)N[C@H](C(=O)N4C[C@H](O)C[C@H]4C(=O)NCc4ccc(-c5scnc5C)cc4)C(C)(C)C)CC3)CC2)ccc1Nc1ncc(Cl)c(Nc2ccccc2P(C)(C)=O)n1 :: 100 to 500 nM
COc1cc(N2CCC(N3CCN(C(=O)COCCOCC(=O)N[C@H](C(=O)N4C[C@H](O)C[C@H]4C(=O)NCc4ccc(-c5scnc5C)cc4)C(C)(C)C)CC3)CC2)ccc1Nc1ncc(Cl)c(Nc2ccccc2P(C)(C)=O)n1 :: 10 to 50 nM
COc1cc(N2CCC(N3CCN(C(=O)CCCCCCCCC(=O)N[C@H](C(=O)N4C[C@H](O)C[C@H]4C(=O)NCc4ccc(-c5scnc5C)cc4)C(C)(C)C)CC3)CC2)ccc1Nc1ncc(Cl)c(Nc2ccccc2P(C)(C)=O)n1 :: 1 to 10 nM

Dear colleague, could you please provide DC50 for the compounds listed below?
1. COc1cc(N2CCC(N3CCN(C(=O)CCOCCOCCOCCOCCC(=O)N[C@H](C(=O)N4C[C@H](O)C[C@H]4C(=O)NCc4ccc(-c5scnc5C)cc4)C(C)(C)C)CC3)CC2)ccc1Nc1ncc(Cl)c(Nc2ccccc2P(C)(C)=O)n1
2. COc1cc(N2CCC(NC(=O)CCCCCCCCCC(=O)N[C@H](C(=O)N3C[C@H](O)C[C@H]3C(=O)NCc3ccc(-c4scnc4C)cc3)C(C)(C)C)CC2)ccc1Nc1ncc(Cl)c(Nc2ccccc2P(C)(C)=O)n1
3. COc1cc(N2CCC(N3CCN(C(=O)CCNc4cccc5c4C(=O)N(C4CCC(=O)NC4=O)C5=O)CC3)CC2)ccc1Nc1ncc(Cl)c(Nc2ccccc2P(C)(C)=O)n1 (stereo not drawn)

1. 100 to 500 nM
2. 0.5 to 10 nM
3. 1 to 10 nM

Param readout = DC50; param system = ALK protein in SR (NPM-ALK) cells (Homo sapiens, UniProt Q9UM73); param query = COc1cc(N2CCC(N3CCN(C(=O)CCOCCNc4cccc5c4C(=O)N(C4CCC(=O)NC4=O)C5=O)CC3)CC2)ccc1Nc1ncc(Cl)c(Nc2ccccc2P(C)(C)=O)n1 (stereo not drawn) ; response: value 1 to 10 nM
